- TARGET_OR_TEST_SYSTEM: T1, PTPN21 PTP R1114Q (UniProt Q16825 872-1174, R1114Q)
- T1 sequence: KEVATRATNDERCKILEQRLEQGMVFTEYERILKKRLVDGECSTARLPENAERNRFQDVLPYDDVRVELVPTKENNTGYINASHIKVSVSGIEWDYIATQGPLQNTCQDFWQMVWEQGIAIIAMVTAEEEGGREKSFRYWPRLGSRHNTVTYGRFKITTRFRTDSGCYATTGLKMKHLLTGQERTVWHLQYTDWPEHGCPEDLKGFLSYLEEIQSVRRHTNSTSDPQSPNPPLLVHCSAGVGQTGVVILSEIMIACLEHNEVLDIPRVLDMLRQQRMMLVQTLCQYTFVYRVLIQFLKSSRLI
- METHOD: MST
pKd: −log10 of the molar value. Where no end group is shown, it is not given here. [ ]: non-standard residue; d: D form. pY = N[C@@H](Cc1ccc(OP(=O)(O)O)cc1)C(=O)O
RECORDED_ENDPOINT: pKd

BINDER	NUMERIC_RESULT
STEPQ[pY]QPGENL (also called Src pY530 synthetic peptide; Peptide Src pY530; source: synthetic peptide (ChinaPeptides Co. Ltd.)) [Src pY530 peptide]	5.21

Hey, just so you know, these numbers are from paper PMC10901363.
